Target: T1, EsCas13d, nuclease-dead (Eubacterium siraeum, UniProt B0MS50, R295A;H300A;R849A;H854A)
T1 sequence: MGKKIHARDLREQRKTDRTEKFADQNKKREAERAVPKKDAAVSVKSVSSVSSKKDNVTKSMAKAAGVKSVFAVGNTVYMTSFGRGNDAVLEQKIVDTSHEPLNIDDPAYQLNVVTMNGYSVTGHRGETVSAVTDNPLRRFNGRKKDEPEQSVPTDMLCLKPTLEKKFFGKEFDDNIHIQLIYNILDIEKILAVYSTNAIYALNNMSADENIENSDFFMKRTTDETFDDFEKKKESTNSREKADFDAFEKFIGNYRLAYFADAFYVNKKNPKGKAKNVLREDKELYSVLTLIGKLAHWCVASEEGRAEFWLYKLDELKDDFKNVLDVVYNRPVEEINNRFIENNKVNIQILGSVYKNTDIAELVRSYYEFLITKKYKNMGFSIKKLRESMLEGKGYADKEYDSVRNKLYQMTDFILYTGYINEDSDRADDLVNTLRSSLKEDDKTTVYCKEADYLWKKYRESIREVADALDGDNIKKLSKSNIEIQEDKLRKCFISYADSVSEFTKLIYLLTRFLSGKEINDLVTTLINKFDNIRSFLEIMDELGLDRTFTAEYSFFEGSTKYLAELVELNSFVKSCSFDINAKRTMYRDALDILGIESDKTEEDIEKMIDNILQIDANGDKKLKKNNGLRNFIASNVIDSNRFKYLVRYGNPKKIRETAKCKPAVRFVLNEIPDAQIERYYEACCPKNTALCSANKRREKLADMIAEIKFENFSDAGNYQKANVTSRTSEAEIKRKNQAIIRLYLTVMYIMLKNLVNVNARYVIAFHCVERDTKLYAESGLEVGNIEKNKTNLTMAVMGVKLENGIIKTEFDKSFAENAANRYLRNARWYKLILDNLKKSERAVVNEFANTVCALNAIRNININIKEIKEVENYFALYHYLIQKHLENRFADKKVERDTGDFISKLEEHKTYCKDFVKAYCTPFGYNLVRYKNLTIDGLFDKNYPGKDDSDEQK
Assay: crRNA (strand 1, pre-loaded); Mg2+; 40 mM Tris-HCl pH 7.5, 150 mM NaCl, 6 mM MgCl2, 1 mM DTT, 0.1% Tween-20, 0.2 mg/ml BSA; 25 C; 10 min per concentration, then washed
Conditions: tags: His6-TwinStrep-SUMO cleaved; N-terminal SNAP kept (SNAP-Surface 488); label: 3' end held by stalled T7 RNA polymerase
The binders listed here are annotated with their log10 of Kd.
Base-10 log of Kd, unit nM.

INSERT INTO assay_data (binder, property_measured, recorded_number) VALUES
  ('target 1 insU 3'' of 4,insU 3'' of 4 (mixed) RNA 1: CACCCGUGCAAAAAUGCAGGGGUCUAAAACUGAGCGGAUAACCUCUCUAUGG RNA 2: GGGAAUGGAUCCACAUCUACGAAUUCGUACCAUAGAGAGGUUAUCCGCUUUCACCGAGAUCGGAAGAGCACACGU', 'log10 of Kd', 0.97),
  ('target 3 insC 3'' of 7,insG 3'' of 6 (mixed) RNA 1: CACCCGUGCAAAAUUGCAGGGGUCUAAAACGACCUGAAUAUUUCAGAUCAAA RNA 2: GGGAAUGGAUCCACAUCUACGAAUUCGUUUUUGAUCUGAAAUAUUCCGAGGUCUGCAGAUCGGAAGAGCACACGU', 'log10 of Kd', 1.80),
  ('target 1 insG 3'' of 18,insA 3'' of 2 (mixed) RNA 1: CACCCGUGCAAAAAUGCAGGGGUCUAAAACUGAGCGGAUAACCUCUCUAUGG RNA 2: GGGAAUGGAUCCACAUCUACGAAUUCGUACCAUAGGAGAGGUUAUCCGCUCAACCGAGAUCGGAAGAGCACACGU', 'log10 of Kd', 1.86),
  ('target 1 insA 3'' of 13,insC 3'' of 5 (mixed) RNA 1: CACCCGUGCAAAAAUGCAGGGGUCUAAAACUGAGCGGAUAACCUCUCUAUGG RNA 2: GGGAAUGGAUCCACAUCUACGAAUUCGUACCAUAGAGAGAGUUAUCCGCCUCACCGAGAUCGGAAGAGCACACGU', 'log10 of Kd', 0.53),
  ('target 1 insG 3'' of 11,insA 3'' of 8 (mixed) RNA 1: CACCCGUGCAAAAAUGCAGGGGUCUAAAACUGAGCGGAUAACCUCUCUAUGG RNA 2: GGGAAUGGAUCCACAUCUACGAAUUCGUACCAUAGAGAGGUGUAUACCGCUCACCGAGAUCGGAAGAGCACACGU', 'log10 of Kd', 1.61);

GET /values?readout=log10 of Kd&item= target 2 MT 5'PFS GUC 3'PFS AGC (mixed) RNA 1: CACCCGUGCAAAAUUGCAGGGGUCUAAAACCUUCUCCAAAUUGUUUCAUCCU RNA 2: GGGAAUGGAUCCACAUCUACGAAUUCGUCAGGAUGAAACAAUUUGGAGAAGAGCAGAUCGGAAGAGCACACGU
1.12

Now this one: target 1 insU 3' of 12,insC 3' of 9 (mixed) RNA 1: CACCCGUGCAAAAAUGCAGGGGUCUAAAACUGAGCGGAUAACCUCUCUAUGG RNA 2: GGGAAUGGAUCCACAUCUACGAAUUCGUACCAUAGAGAGGUUUACUCCGCUCACCGAGAUCGGAAGAGCACACGU
1.06

Now this one: target 1 MT 5'PFS UUA 3'PFS CGC (mixed) RNA 1: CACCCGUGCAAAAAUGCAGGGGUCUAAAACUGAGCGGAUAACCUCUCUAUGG RNA 2: GGGAAUGGAUCCACAUCUACGAAUUCUUACCAUAGAGAGGUUAUCCGCUCACGCAGAUCGGAAGAGCACACGU
1.26
